- Study system: Caspase-6 (Homo sapiens, UniProt P55212)
- Sequence (P55212 24-179 limits assumed): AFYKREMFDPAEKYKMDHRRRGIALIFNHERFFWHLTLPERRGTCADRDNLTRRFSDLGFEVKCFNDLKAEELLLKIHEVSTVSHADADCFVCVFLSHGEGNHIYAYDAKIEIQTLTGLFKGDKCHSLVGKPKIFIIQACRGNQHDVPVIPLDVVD
- Sequence (P55212 194-293 limits assumed): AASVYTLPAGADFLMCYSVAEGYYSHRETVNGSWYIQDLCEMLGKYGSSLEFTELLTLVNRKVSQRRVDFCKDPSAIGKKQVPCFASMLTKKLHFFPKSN
- Method description: Caspase-6 progress curve inhibition assay
- Details: second-order rate constant; Ac-DEVD-AMC substrate; Pipes buffer pH 7.2
As shown below, each of these compounds has a reported k2 Caspase-6 value.

- Compound: "CC(C)C[C@H](NC(=O)OCc1ccccc1)C(=O)N[C@@H](CCC(=O)O)C(=O)N[C@H](C(=O)NN(CC(=O)O)C(=O)/C=C/C(=O)Nc1ccccc1)[C@@H](C)O (relative stereo)"
  k2 Caspase-6: "11,400 M^−1s^−1"
- Compound: "CC(C)C[C@H](NC(=O)OCc1ccccc1)C(=O)N[C@@H](CCC(=O)O)C(=O)N[C@H](C(=O)NN(CC(=O)O)C(=O)/C=C/C(=O)N(C)Cc1cccc2ccccc12)[C@@H](C)O (relative stereo)"
  k2 Caspase-6: "21,700 M^−1s^−1"
- Compound: "CC[C@H](C)[C@H](NC(=O)OCc1ccccc1)C(=O)N[C@@H](CCC(=O)O)C(=O)N[C@H](C(=O)NN(CC(=O)O)C(=O)/C=C/C(=O)NCCc1ccccc1)[C@@H](C)O (relative stereo)"
  k2 Caspase-6: "18,700 M^−1s^−1"
- Compound: "CC(C)C[C@H](NC(=O)OCc1ccccc1)C(=O)N[C@@H](CCC(=O)O)C(=O)N[C@H](C(=O)NN(CC(=O)O)C(=O)/C=C/C(=O)NCc1ccccc1)[C@@H](C)O (relative stereo)"
  k2 Caspase-6: "1,550 M^−1s^−1"
- Compound: "CC(C)[C@H](NC(=O)[C@H](CCC(=O)O)NC(=O)[C@H](CC(=O)O)NC(=O)OCc1ccccc1)C(=O)NN(CC(=O)O)C(=O)/C=C/C(=O)OCc1ccccc1 (relative stereo)"
  k2 Caspase-6: "8,470 M^−1s^−1"
- Compound: "CCOC(=O)/C=C\\C(=O)N(CC(=O)O)NC(=O)[C@@H](NC(=O)[C@H](CCC(=O)O)NC(=O)[C@H](CC(=O)O)NC(=O)OCc1ccccc1)C(C)C (relative stereo) [Cbz-Asp-Glu-Val-AAsp-CH═CH—COOEt (cis)]"
  k2 Caspase-6: "11,000 M^−1s^−1"
- Compound: "CC(C)[C@H](NC(=O)[C@H](CCC(=O)O)NC(=O)[C@H](CC(=O)O)NC(=O)OCc1ccccc1)C(=O)NN(CC(=O)O)C(=O)/C=C/C(=O)NCc1ccc(F)cc1 (relative stereo)"
  k2 Caspase-6: "4,400 M^−1s^−1"
- Compound: "CC(C)C[C@H](NC(=O)OCc1ccccc1)C(=O)N[C@@H](CCC(=O)O)C(=O)N[C@H](C(=O)NN(CC(=O)O)C(=O)/C=C/C(=O)OCc1ccccc1)[C@@H](C)O (relative stereo)"
  k2 Caspase-6: "47,600 M^−1s^−1"
- Compound: "CC(C)[C@H](NC(=O)[C@H](CCC(=O)O)NC(=O)[C@H](CC(=O)O)NC(=O)OCc1ccccc1)C(=O)NN(CC(=O)O)C(=O)/C=C/C(=O)N(C)Cc1ccccc1 (relative stereo)"
  k2 Caspase-6: "9,500 M^−1s^−1"
- Compound: "CC(C)[C@H](NC(=O)[C@H](CCC(=O)O)NC(=O)[C@H](CC(=O)O)NC(=O)OCc1ccccc1)C(=O)NN(CC(=O)O)C(=O)C=CC(=O)N(Cc1cccc2ccccc12)Cc1cccc2ccccc12"
  k2 Caspase-6: "29,700 M^−1s^−1"
- Compound: "CC[C@H](C)[C@H](NC(=O)OCc1ccccc1)C(=O)N[C@@H](CCC(=O)O)C(=O)N[C@H](C(=O)NN(CC(=O)O)C(=O)/C=C/C(=O)N(Cc1ccccc1)Cc1ccccc1)[C@@H](C)O (relative stereo)"
  k2 Caspase-6: "83,900 M^−1s^−1"
- Compound: "CC(C)C[C@H](NC(=O)OCc1ccccc1)C(=O)N[C@@H](CCC(=O)O)C(=O)N[C@H](C(=O)NN(CC(=O)O)C(=O)/C=C/C(=O)N(Cc1ccccc1)Cc1ccccc1)[C@@H](C)O (relative stereo)"
  k2 Caspase-6: "14,100 M^−1s^−1"
- Compound: "CCOC(=O)/C=C/C(=O)N(CC(=O)O)NC(=O)[C@@H](NC(=O)[C@H](CCC(=O)O)NC(=O)[C@@H](NC(=O)OCc1ccccc1)C(C)C)C(C)C (relative stereo)"
  k2 Caspase-6: "83,600 M^−1s^−1"
- Compound: "CC(C)[C@H](NC(=O)[C@H](CCC(=O)O)NC(=O)[C@H](CC(=O)O)NC(=O)OCc1ccccc1)C(=O)NN(CC(=O)O)C(=O)/C=C/C(=O)c1ccccc1 (relative stereo)"
  k2 Caspase-6: "1,800 M^−1s^−1"
- Compound: "CCOC(=O)/C=C/C(=O)N(CC(=O)O)NC(=O)[C@@H](NC(=O)[C@H](CCC(=O)O)NC(=O)OCc1ccccc1)C(C)C (relative stereo)"
  k2 Caspase-6: "3,540 M^−1s^−1"
- Compound: "CC(C)[C@H](NC(=O)[C@H](CCC(=O)O)NC(=O)[C@H](CC(=O)O)NC(=O)OCc1ccccc1)C(=O)NN(CC(=O)O)C(=O)/C=C/C(=O)N(Cc1ccccc1)Cc1ccccc1 (relative stereo)"
  k2 Caspase-6: "5,100 M^−1s^−1"
- Compound: "CC[C@H](C)[C@H](NC(=O)OCc1ccccc1)C(=O)N[C@@H](CCC(=O)O)C(=O)N[C@H](C(=O)NN(CC(=O)O)C(=O)/C=C/C(=O)OCc1ccccc1)[C@@H](C)O (relative stereo)"
  k2 Caspase-6: "23,350 M^−1s^−1"
- Compound: "CC[C@H](C)[C@H](NC(=O)OCc1ccccc1)C(=O)N[C@@H](CCC(=O)O)C(=O)N[C@H](C(=O)NN(CC(=O)O)C(=O)/C=C/C(=O)Nc1ccccc1)[C@@H](C)O (relative stereo)"
  k2 Caspase-6: "99,200 M^−1s^−1"

----------
- Study system: UniProt:Q14790
- Sequence (Q14790 217-374 limits assumed): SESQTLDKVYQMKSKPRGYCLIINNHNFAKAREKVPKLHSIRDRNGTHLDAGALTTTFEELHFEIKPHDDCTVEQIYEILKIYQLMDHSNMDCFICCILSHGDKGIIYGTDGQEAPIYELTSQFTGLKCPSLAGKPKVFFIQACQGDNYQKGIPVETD
- Sequence (Q14790 385-479 limits assumed): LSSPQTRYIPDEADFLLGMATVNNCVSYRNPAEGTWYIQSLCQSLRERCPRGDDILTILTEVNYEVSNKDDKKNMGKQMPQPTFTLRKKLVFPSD
- Method description: Caspase-8 progress curve inhibition assay
- Details: second-order rate constant; Ac-DEVD-AMC substrate; Pipes buffer pH 7.2
Each record here notes measured k2 Caspase-8.
Measured parameter: k2 Caspase-8

- Compound: "CC(C)C[C@H](NC(=O)OCc1ccccc1)C(=O)N[C@@H](CCC(=O)O)C(=O)N[C@H](C(=O)NN(CC(=O)O)C(=O)/C=C/C(=O)OCc1ccccc1)[C@@H](C)O (relative stereo) [Cbz-Leu-Glu-Thr-AAsp-CH═CH—COOCH2Ph]"
  Experimental result: "98,400 M^−1s^−1"
- Compound: "CC(C)[C@H](NC(=O)[C@H](CCC(=O)O)NC(=O)[C@H](CC(=O)O)NC(=O)OCc1ccccc1)C(=O)NN(CC(=O)O)C(=O)/C=C/C(=O)NCCc1ccccc1 (relative stereo) [Cbz-Asp-Glu-Val-AAsp-CH═CH—CONHCH2CH2Ph]"
  Experimental result: "129,000 M^−1s^−1"
- Compound: "CC(C)[C@H](NC(=O)[C@H](CCC(=O)O)NC(=O)[C@H](CC(=O)O)NC(=O)OCc1ccccc1)C(=O)NN(CC(=O)O)C(=O)/C=C/C(=O)N(C)Cc1ccccc1 (relative stereo) [Cbz-Asp-Glu-Val-AAsp-CH═CH—CON(CH3)CH2Ph]"
  Experimental result: "90,300 M^−1s^−1"
- Compound: "CC(C)[C@H](NC(=O)[C@H](CCC(=O)O)NC(=O)[C@H](CC(=O)O)NC(=O)OCc1ccccc1)C(=O)NN(CC(=O)O)C(=O)/C=C/C(=O)c1ccccc1 (relative stereo) [Cbz-Asp-Glu-Val-AAsp-CH═CH—COPh]"
  Experimental result: "9,720 M^−1s^−1"
- Compound: "CC[C@H](C)[C@H](NC(=O)OCc1ccccc1)C(=O)N[C@@H](CCC(=O)O)C(=O)N[C@H](C(=O)NN(CC(=O)O)C(=O)/C=C/C(=O)NCCc1ccccc1)[C@@H](C)O (relative stereo) [Cbz-Ile-Glu-Thr-AAsp-CH═CH—CONHCH2CH2Ph]"
  Experimental result: "71,000 M^−1s^−1"
- Compound: "CC(C)C[C@H](NC(=O)OCc1ccccc1)C(=O)N[C@@H](CCC(=O)O)C(=O)N[C@H](C(=O)NN(CC(=O)O)C(=O)/C=C/C(=O)N(Cc1ccccc1)Cc1ccccc1)[C@@H](C)O (relative stereo) [Cbz-Leu-Glu-Thr-AAsp-CH═CH—CON(CH2Ph)2]"
  Experimental result: "129,000 M^−1s^−1"
- Compound: "CCOC(=O)/C=C/C(=O)N(CC(=O)O)NC(=O)[C@@H](NC(=O)[C@H](CCC(=O)O)NC(=O)[C@@H](NC(=O)OCc1ccccc1)[C@@H](C)CC)[C@@H](C)O (relative stereo) [Cbz-Ile-Glu-Thr-AAsp-CH═CH—COOEt]"
  Experimental result: "56,500 M^−1s^−1"
- Compound: "CC[C@H](C)[C@H](NC(=O)OCc1ccccc1)C(=O)N[C@@H](CCC(=O)O)C(=O)N[C@H](C(=O)NN(CC(=O)O)C(=O)/C=C/C(=O)OCc1ccccc1)[C@@H](C)O (relative stereo) [Cbz-Ile-Glu-Thr-AAsp-CH═CH—COOCH2Ph]"
  Experimental result: "148,400 M^−1s^−1"

These entries and their values trace back to patent US7482379B2.
